# Test system: AMARE (Amaranthus retroflexus)
# METHOD SUMMARY: Post-emergence glasshouse herbicide test on AMARE
# Type: in vivo
# SETTINGS: Rate 250 g/ha; sprayed after 10 days cultivation; evaluated after 14 days
For each record, write down the corresponding AMARE damage to plant (100=total damage to plant; 0=no damage to plant).
Output spec: single numeric token, no unit.

Reported AMARE damage to plant (100=total damage to plant; 0=no damage to plant) of COc1ccc(-n2nc(C)cc(C(=O)C3C(=O)C4CCC(C4)C3=O)c2=O)cc1OC (stereo not shown) : 100

# molecule "COc1ccc(-n2nc(C)cc(C(=O)C3C(=O)C(C)(C)C(=O)C(C)(C)C3=O)c2=O)cc1OC" ; its AMARE damage to plant (100=total damage to plant; 0=no damage to plant) = 100

Note to self: AMARE damage to plant (100=total damage to plant; 0=no damage to plant) recorded for "COc1ccc(-n2nc(C)cc(C(=O)C3C(=O)CCCC3=O)c2=O)cc1OC" was 100

Noted for COc1ccc(-n2nc(C3CC3)cc(C(=O)C3C(=O)C4CCC(C4)C3=O)c2=O)cc1OC (stereo not shown) : its AMARE damage to plant (100=total damage to plant; 0=no damage to plant) reads 100

Record summary for "COc1ccc(-n2nc(C3CC3)cc(C(=O)C3C(=O)C(C)(C)C(=O)C(C)(C)C3=O)c2=O)cc1OC" : reported AMARE damage to plant (100=total damage to plant; 0=no damage to plant) = 100

Noted for "COc1ccc(-n2nc(C)cc(C(=O)C3C(=O)CC(C)(C)CC3=O)c2=O)cc1OC" : its AMARE damage to plant (100=total damage to plant; 0=no damage to plant) reads 100

Looking up COc1ccc(-n2nc(C)cc(C(=O)C3C(=O)CC(C)CC3=O)c2=O)cc1OC (stereo not shown) , I see its AMARE damage to plant (100=total damage to plant; 0=no damage to plant) listed as 100
